The measurements presented in this section are drawn from paper PMC9763686.

Target: IBV-NP (nucleoprotein of influenza B virus B/Yamagata/16/1988) (Influenza B virus B/Yamagata/16/1988, UniProt Q82662, strain)
Experiment: ELISA
Settings: one partner purified
Result type: binding result

Binder	Meas value
H9N2-NP-Nb5-HRP (VHH) VHH: ESGGGLVQPGGSLRLSCAASGFPFSDYDMNWARQAPGKELEDVSAISSGGTYTYYADSVKGRFTISRDNAKNTLYLQLNSLQTEDTAMYYCGRGWTSGYKSRGQGTQVTVSS	no binding
H9N2-NP-Nb18-HRP (VHH) VHH: ESGGGSVQAGGSLRLSCAASHTYGTYAMAWFRQAPGEEREGVAAIDSDGETIYADSVKGRFTISRDNAKNILYLQMNSLKPEDTAMYYCAEDLRGVWYGRLELRPGRFTYWGQGTQVTVSS	no binding
